LIVER: recorded values
- Organism: Rattus norvegicus
- experimentNotes: Open TG-GATES - Regimen: Single
- Format: toxicity, organism-based, Sprague-Dawley
- Set-up: regimen Single, gender Male, age 6 weeks
- runConditions: in vivo, po, 100 mg/kg, 3 h, tissue Liver, route gavage, dose level Low
Enter your answer as a number in g; do not include the unit.

Below, each entry is followed by its recorded LIVER result.
CCc1cc(C(N)=S)ccn1 [ETHIONAMIDE]; 10.7
Clc1ccccc1CN1CCc2sccc2C1; 9
O=C(O)c1cn(C2CC2)c2cc(N3CCNCC3)c(F)cc2c1=O; 9.1

Shifting focus to the compound that follows.
Inquiry: Need LIVER, item O=C(O)c1cc(/N=N/c2ccc(S(=O)(=O)Nc3ccccn3)cc2)ccc1O
Reply text: 10.2

Recorded values, source ChEMBL document CHEMBL3885861.
